System: SF-539
Assay: NCI tumour cell line growth inhibition, 48 h
Active and inactive are the calls of the source. Cut-off read from the data, not from the text of the source: active = GI50 up to about 1.1 µM and inactive = higher.
ASSAY ENDPOINT: GI50

Input: Tell me GI50 of `CN(C)CCC(CCN(C)C)=NOC(=O)c1ccccc1` when tested on SF-539.
Output: > 100 µM (inactive)

Input: Tell me GI50 of CC1=NN(C(=O)CC(=O)Nc2ccccc2C)C(=O)C1/N=N/c1ccc(C(=O)O)cc1 (stereo unspecified) when tested on SF-539.
Output: > 100 µM (inactive)

Input: Tell me GI50 of CC(C)C1CC(CO)(CNc2nc(N)nc(Cl)c2C=O)C1 (stereo unspecified) when tested on SF-539.
Output: 13.7 µM (inactive)

Input: Tell me GI50 of `N[C@H]1CCN(c2c(F)cc3c(=O)c(C(=O)O)cn4c3c2Oc2c-4ccc3c2ccc2ccccc23)C1` when tested on SF-539.
Output: 1.25 µM (inactive)

Input: Tell me GI50 of `O=C(/C=C\Nc1ccccc1O)C(F)(F)F` when tested on SF-539.
Output: > 100 µM (inactive)

Input: Tell me GI50 of `O=[N+]([O-])C(=C1Nc2ccccc2N1)/C(Cl)=C(/Cl)N1CCOCC1` when tested on SF-539.
Output: > 100 µM (inactive)

Input: Tell me GI50 of CCCCCC(O)C(O)CCC[C@H](O)[C@H]1CC[C@H]([C@H]2CC[C@H]([C@H](O)CCCCCCCCCCCCC3=C[C@H](C)OC3=O)O2)O1 (stereo partly specified) when tested on SF-539.
Output: 5.7 µM (inactive)

Input: Tell me GI50 of `O=C(O)Cc1c[nH]c2ccc(F)cc12` when tested on SF-539.
Output: > 100 µM (inactive)

Input: Tell me GI50 of `COc1cc2c(oc(=O)c3c4occc4cc(OC)c23)c2cccc(OCc3ccccc3)c12` when tested on SF-539.
Output: > 100 µM (inactive)

Input: Tell me GI50 of `Cn1cc(C[C@@H](N)C(=O)O)c2ccccc21` when tested on SF-539.
Output: > 100 µM (inactive)

Input: Tell me GI50 of COc1ccc(C2=C(Cl)c3cc(OC)c(OC)cc3C2OC)cc1OC (stereo unspecified) when tested on SF-539.
Output: 65.2 µM (inactive)

Input: Tell me GI50 of C=C1C(=O)OC2C1CC1OC2C(C)CCC/C(C)=C\CCC1(C)O (stereo unspecified) when tested on SF-539.
Output: 16.5 µM (inactive)

Input: Tell me GI50 of `CC(=O)c1sc2c(c1OC(=O)c1cccs1)c(=O)n(-c1ccccc1)c(=S)n2-c1ccccc1` when tested on SF-539.
Output: 2.41 µM (inactive)

Input: Tell me GI50 of `COc1cc2c(OC)cc1CSCc1sc(C)c(c1Br)CSC2` when tested on SF-539.
Output: > 100 µM (inactive)

Input: Tell me GI50 of `Cc1ccc(C)c(NC(=O)CCc2nnc(S)[nH]2)c1` when tested on SF-539.
Output: > 100 µM (inactive)

Input: Tell me GI50 of CN(C)C(c1ccccc1)C(O)c1ccccc1 (stereo unspecified) when tested on SF-539.
Output: > 100 µM (inactive)

Input: Tell me GI50 of COC(=O)/C(=N\NC(N)=O)C(C(=O)C=C(C)C)C(=O)C(=O)Nc1ccc(Cl)c(Cl)c1 (stereo unspecified) when tested on SF-539.
Output: > 100 µM (inactive)

Input: Tell me GI50 of C=CCN(N=O)C(=O)N(CCCC(NC(C)=O)C(=O)NCc1ccccc1)Cc1ccccc1 (stereo unspecified) when tested on SF-539.
Output: 37.2 µM (inactive)

Input: Tell me GI50 of `COc1ccc(CCN2CCC(C#N)(c3ccc(OC)c(OC)c3)CC2)cc1OC` when tested on SF-539.
Output: > 100 µM (inactive)

Input: Tell me GI50 of `CN(C)CCCN1c2ccc([N+](=O)[O-])cc2CCc2cccc([N+](=O)[O-])c21` when tested on SF-539.
Output: 15.2 µM (inactive)

Input: Tell me GI50 of `COc1cc(Oc2nc3c(N)cc(C(F)(F)F)cc3nc2-c2ccccc2)cc(OC)c1OC` when tested on SF-539.
Output: 3.4 µM (inactive)
